system: Trypanosoma brucei rhodesiense; assay: Antitrypanosomal activity against Trypanosoma brucei rhodesiense STIB900; assay type: functional, organism-based
I'd appreciate it if you could supply pIC50 values for the items below.
FYI, pIC50 means -log10 of a concentration in mol per litre.

Incoming: // returns reported pIC50 for input "N=C(N)c1ccc(-c2ccc(-c3ccc(C(=N)N)cc3)nn2)cc1"
Outgoing: 7.85

Incoming: Try this compound too: "N=C(N)c1ccc(-c2ccc(-c3cnc(C(=N)N)nc3)cn2)cc1"
Outgoing: 7.92

Incoming: Now consider "N=C(N)c1ccc(-c2ccc(-c3ccc(C(=N)N)cc3)cc2)cc1" and answer again.
Outgoing: 8.30

Incoming: Now try "N=C(N)c1ncc(-c2ccc(-c3cnc(C(=N)N)nc3)cc2)cn1" .
Outgoing: 8.22

Incoming: Next entry: "N=C(N)c1ccc(-c2ccc(-c3ccc(C(=N)N)cn3)cc2)nc1"
Outgoing: 7.33

Incoming: Could you do the same for "N=C(N)c1ccc(-c2ccc(-c3ccc(C(=N)N)cc3)nc2)cc1" , please?
Outgoing: 8.70

Incoming: Next: "N=C(N)c1ccc(-c2ccc(-c3cnc(C(=N)N)nc3)cc2)cc1"
Outgoing: 8.40

Incoming: Same again, this time with "N=C(N)c1ccc(-c2ccc(-c3ccc(C(=N)N)nc3)cn2)cc1"
Outgoing: 8.22

Incoming: And for "N=C(N)c1ccc(-c2cnc(-c3ccc(C(=N)N)cc3)cn2)cc1" ?
Outgoing: 7.74
